# testedOn: human TLR8 (Homo sapiens (Human), UniProt Q9NR97)
# Sequence (Q9NR97 27-1041): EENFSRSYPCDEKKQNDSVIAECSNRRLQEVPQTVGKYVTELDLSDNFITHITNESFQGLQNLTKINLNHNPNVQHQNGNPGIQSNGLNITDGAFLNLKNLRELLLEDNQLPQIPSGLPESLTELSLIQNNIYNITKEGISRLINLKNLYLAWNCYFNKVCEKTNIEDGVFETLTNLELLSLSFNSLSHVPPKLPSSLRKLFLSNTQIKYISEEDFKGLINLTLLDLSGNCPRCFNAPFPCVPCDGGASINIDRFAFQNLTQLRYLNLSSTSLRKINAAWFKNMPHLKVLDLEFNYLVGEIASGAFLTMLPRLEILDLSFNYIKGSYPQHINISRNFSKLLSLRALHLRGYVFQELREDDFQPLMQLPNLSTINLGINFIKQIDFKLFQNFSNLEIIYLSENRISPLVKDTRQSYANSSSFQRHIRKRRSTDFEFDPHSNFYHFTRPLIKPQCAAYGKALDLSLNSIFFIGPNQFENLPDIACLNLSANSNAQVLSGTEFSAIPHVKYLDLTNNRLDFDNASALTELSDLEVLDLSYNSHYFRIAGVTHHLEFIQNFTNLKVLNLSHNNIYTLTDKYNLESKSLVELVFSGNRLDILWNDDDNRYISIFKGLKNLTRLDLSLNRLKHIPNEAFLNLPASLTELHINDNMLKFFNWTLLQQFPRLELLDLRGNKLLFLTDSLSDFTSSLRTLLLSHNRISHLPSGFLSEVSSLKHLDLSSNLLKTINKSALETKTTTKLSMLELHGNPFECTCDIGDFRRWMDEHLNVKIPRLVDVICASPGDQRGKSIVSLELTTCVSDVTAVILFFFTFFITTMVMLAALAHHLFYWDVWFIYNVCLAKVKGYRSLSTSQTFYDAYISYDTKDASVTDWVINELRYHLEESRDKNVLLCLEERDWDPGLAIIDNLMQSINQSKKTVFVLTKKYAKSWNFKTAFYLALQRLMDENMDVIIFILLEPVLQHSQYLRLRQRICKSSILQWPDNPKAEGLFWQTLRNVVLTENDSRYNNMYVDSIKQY
# assayProcedure: TLR8 inhibition reporter assay (HEK-Blue, SEAP)
# condition: HEK-Blue cells overexpressing human TLR8, R848 15.9 μM stimulation
pIC50: −log10 of the molar value.
Label yes (1) when pIC50 is at or above 8; otherwise label no (0).

compound="Cc1cc(-c2[nH]c3ccc(-c4ccc(N5CCN(C)CC5)nc4)cc3c2C(C)C)cc(C)n1 [Example 301]" answerlabel="yes (1)"
compound="CCc1c(-c2ccc(OC)c(OC)c2)[nH]c2ccc(-c3nnc(C(=O)N(C)C)o3)cc12 [Example 38]" answerlabel="no (0)"
compound="CC(C)c1c(-c2ccnc3[nH]ncc23)[nH]c2ccc(-c3nc(C(=O)N4CCCN(C)CC4)co3)cc12 [Example 233]" answerlabel="yes (1)"
compound="COc1ccc(-c2[nH]c3ccc(-c4cccc(C(=O)N5CCC(O)CC5)c4)cc3c2CC(F)(F)F)cc1OC [Example 31]" answerlabel="no (0)"
